// values below are IC50; system is Prostaglandin G/H synthase 1 (Ovis aries, UniProt P05979)
Sequence (P05979 whole entry): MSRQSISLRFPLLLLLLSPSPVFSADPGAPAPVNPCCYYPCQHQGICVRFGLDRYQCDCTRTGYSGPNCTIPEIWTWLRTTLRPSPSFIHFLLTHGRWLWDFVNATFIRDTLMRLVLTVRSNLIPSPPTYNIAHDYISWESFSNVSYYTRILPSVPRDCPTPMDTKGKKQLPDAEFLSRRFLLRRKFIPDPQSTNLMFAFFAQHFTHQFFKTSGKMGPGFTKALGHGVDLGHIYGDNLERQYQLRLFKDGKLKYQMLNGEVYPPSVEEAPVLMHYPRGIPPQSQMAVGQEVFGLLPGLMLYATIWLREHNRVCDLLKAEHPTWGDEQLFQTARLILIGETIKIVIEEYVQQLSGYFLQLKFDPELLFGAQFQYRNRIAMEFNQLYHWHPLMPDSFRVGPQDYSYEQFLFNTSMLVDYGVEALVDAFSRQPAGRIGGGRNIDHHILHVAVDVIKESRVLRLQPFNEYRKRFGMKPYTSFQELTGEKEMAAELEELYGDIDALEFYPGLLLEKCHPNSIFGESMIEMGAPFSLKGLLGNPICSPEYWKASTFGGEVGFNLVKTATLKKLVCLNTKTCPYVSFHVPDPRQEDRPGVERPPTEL
result.type: IC50 (µM)

sample.smiles | comparison.sign | number
CS(=O)(=O)c1ccc(-n2nc(C(F)(F)F)cc2-c2ccc(CO)cc2)cc1 | = | 8.6
CC(=O)OCO/N=[N+](\[O-])N1CCC[C@H]1C(=O)OCc1ccc(-c2cc(C(F)(F)F)nn2-c2ccc(S(N)(=O)=O)cc2)cc1 | > | 100

FYI, the data here is from ChEMBL document CHEMBL1152264.
